# experimental.target: human α2A receptor (Homo sapiens)
# Sequence (P08913 1-465): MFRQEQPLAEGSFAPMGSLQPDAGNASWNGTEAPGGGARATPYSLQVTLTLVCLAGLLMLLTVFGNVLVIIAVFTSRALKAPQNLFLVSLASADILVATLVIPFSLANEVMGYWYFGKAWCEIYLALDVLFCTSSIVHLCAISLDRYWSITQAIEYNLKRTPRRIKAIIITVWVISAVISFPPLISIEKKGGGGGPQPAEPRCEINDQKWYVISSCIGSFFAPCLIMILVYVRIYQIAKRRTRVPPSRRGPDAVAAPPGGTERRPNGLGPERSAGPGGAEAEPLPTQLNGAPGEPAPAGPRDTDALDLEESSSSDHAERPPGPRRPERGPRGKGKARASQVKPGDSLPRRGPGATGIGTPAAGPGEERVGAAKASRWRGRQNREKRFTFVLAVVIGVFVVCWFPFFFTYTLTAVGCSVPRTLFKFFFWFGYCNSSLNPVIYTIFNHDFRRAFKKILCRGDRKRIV
# protocol.summary: FLIPR Ca+2 influx assay, α2A
# test.conditions: HEK 293 cells stably expressing human α2A receptor and chimeric G protein Gqi5
# From the text: The compounds disclosed herein are agonists of alpha 2B/2C adrenergic receptors. […] This assay is adequate for monitoring the intracellular Ca^2+ mobilization from fluorescent reading to evaluate receptor agonists. […]
Label Met when EC50 is strictly below 4 µM; otherwise label Not met.

In: For CCN(Cc1ccccn1)C1CCc2cccc(O)c2C1 (centres unmarked) , is the recorded EC50 below the cut-off of 4 µM?
Out: Not met

Recorded values, source patent US7829587B2.
